# Test system: H1650 cells
# Test protocol: CellTiterGlo (CTG) cell viability, 3D, 120 h, H1650 (Example 8)
# Assay type: cell-based, human
# Assay conditions: Homo sapiens, NCI-H1650, H1650 3D, mean of n1 and n2, read-out: H1650 3D CTG IC50 Mean of n1 and n2
Readout: pIC50
Scale for pIC50: -log10 of concentration given in mol/L; no unit attached.

Example cases with answers are listed next.
CNCCOC1Cc2c(nnc(Nc3nc4ccccc4s3)c2C)N(c2nc(C(=O)O)c(CCCOc3ccc(C#CCN(C)C)cc3F)s2)C1 (stereo not shown) | 8.21
Cc1c(Nc2nc3ccccc3s2)nnc2c1CCCN2c1nc(C(=O)O)c(CCCOc2ccc(C#CCN3CCN(C)CC3)cc2F)s1 | 9.26
Cc1c(Nc2nc3ccccc3s2)nnc2c1CCCN2c1ccc(-c2cnn(C[C@]34C[C@]5(C)C[C@](C)(C3)C[C@@](OCCN3CCN(C(C)C)CC3)(C5)C4)c2C)c(C(=O)O)n1 | 9.64
Cc1c(Nc2nc3ccccc3s2)nnc2c1CCCN2c1ccc(-c2cnn(C[C@]34C[C@]5(C)C[C@](C)(C3)C[C@@](OCCN3CCOCC3)(C5)C4)c2C)c(C(=O)O)n1 | 9.55
Cc1c(Nc2nc3ccccc3s2)nnc2c1CCCN2c1ccc(-c2cnn(C[C@]34C[C@@]5(C)C[C@](C)(C[C@](CCCN6CCCC6)(C5)C3)C4)c2C)c(C(=O)O)n1 | 8.57

Q: # query: pIC50 of entry "Cc1c(Nc2nc3ccccc3s2)nnc2c1CCCN2c1ccc(-c2cnn(CC34CC5(C)CC(C)(C3)CC(OCCN(C)CCCC(=O)O)(C5)C4)c2C)c(C(=O)O)n1"
A: 7.98

====

Reported pIC50 by item:
# System: H1650 cells
# Test protocol: CellTiterGlo (CTG) cell viability, 3D, 120 h, H1650 (Example 8)
# Format: cell-based, human
# Assay conditions: Homo sapiens, NCI-H1650, H1650 3D, mean of n1 and n2, read-out: H1650 3D CTG IC50 Mean of n1 and n2
Scale for pIC50: -log10 of concentration given in mol/L; no unit attached.

Cc1c(Nc2nc3ccccc3s2)nnc2c1CCCN2c1ccc(-c2cnn(C[C@]34C[C@]5(C)C[C@](C)(C3)C[C@@](OCCN3CCNCC3)(C5)C4)c2C)c(C(=O)O)n1 [P31] | 9.00
Cc1c(Nc2nc3ccccc3s2)nnc2c1CCCN2c1ccc(-c2cnn(CC34CC5(C)CC(C)(CC(CCCNCCCCO)(C5)C3)C4)c2C)c(C(=O)O)n1 [P72] | 8.27

Q: # query: pIC50 of entry Cc1ccc2nc(Nc3nnc4c(c3C)CCCN4c3ccc(-c4cnn(CC56CC7(C)CC(C)(C5)CC(OCCN5CCCC5)(C7)C6)c4C)c(C(=O)O)n3)sc2c1 [P64]
A: 8.65

Q: # query: pIC50 of entry Cc1c(Nc2nc3ccccc3s2)nnc2c1CCCN2c1ccc(-c2cnn(C[C@]34C[C@]5(C)C[C@](C)(C3)C[C@@](OCCNCCCCO)(C5)C4)c2C)c(C(=O)O)n1 [P22]
A: 9.11

Q: # query: pIC50 of entry CCN(CC)CC#Cc1ccc(OCCCc2sc(N3CCCc4c3nnc(Nc3nc5ccccc5s3)c4C)nc2C(=O)O)c(F)c1 [P14]
A: 8.44

Q: # query: pIC50 of entry Cc1c(Nc2nc3ccccc3s2)nnc2c1CCCN2c1ccc(-c2cnn(C[C@]34C[C@]5(C)C[C@](C)(C3)C[C@@](OCCN3CCCCCC3)(C5)C4)c2C)c(C(=O)O)n1 [P33]
A: 9.14

Q: # query: pIC50 of entry Cc1c(Nc2nc3ccccc3s2)nnc2c1CCCN2c1ccc(-c2cnn(CC34CC5(C)CC(C)(C3)CC(OCCN(C)CCC(=O)O)(C5)C4)c2C)c(C(=O)O)n1 [P70]
A: 8.02

Q: # query: pIC50 of entry Cc1c(Nc2nc3ccccc3s2)nnc2c1CCCN2c1ccc(-c2cnn(CC34CC5(C)CC(C)(C3)CC(OCCN(C)CCCO)(C5)C4)c2C)c(C(=O)O)n1 [P62]
A: 9.28

Q: # query: pIC50 of entry COCCCN(C)CCOC12CC3(C)CC(C)(CC(Cn4ncc(-c5ccc(N6CCCc7c6nnc(Nc6nc8ccccc8s6)c7C)nc5C(=O)O)c4C)(C3)C1)C2 [P36]
A: 9.54

Q: # query: pIC50 of entry Cc1cc(N(C)c2ccc(-c3cnn(C[C@]45C[C@]6(C)C[C@](C)(C4)C[C@@](OCCNCCCO)(C6)C5)c3C)c(C(=O)O)n2)nnc1Nc1nc2ccccc2s1 [P26]
A: 9.16

Q: # query: pIC50 of entry COCCCN(C)CCCC12CC3(C)CC(C)(C1)CC(Cn1ncc(-c4ccc(N5CCCc6c5nnc(Nc5nc7ccccc7s5)c6C)nc4C(=O)O)c1C)(C3)C2 [P50]
A: 9.42
